B1: tRNA (parent)
chain: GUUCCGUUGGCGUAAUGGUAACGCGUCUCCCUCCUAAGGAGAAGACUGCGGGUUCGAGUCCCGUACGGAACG

Variants of: B1
TEST NAME: yeast fitness relative to wild type (ratio to wild type); higher = fitter; tRNA-Arg(CCU), competitive growth, 37 C, YPD
This sample holds only a part of the variants without activity.
EXPERIMENTAL READOUT: yeast fitness

Query block: Report yeast fitness for U16G A20U G38A please.
Result block: 0.538

Query block: Could you do the same for U19C C49G G67U , please?
Result block: 0.599

Query block: Could you do the same for G6C A36U G39A , please?
Result block: ≤ 0.5

Query block: Could you do the same for C24U A37G A43G , please?
Result block: 0.516

Query block: Could you do the same for C31G C33U U35A , please?
Result block: ≤ 0.5

Query block: Could you do the same for U53A A69U , please?
Result block: 0.891

Query block: Could you do the same for U26A C27A , please?
Result block: 0.671

Query block: Could you do the same for C4U C11G C22G C62U , please?
Result block: ≤ 0.5

Query block: Could you do the same for C5U A45G , please?
Result block: 0.974

Query block: Could you do the same for G25C C33G C61G , please?
Result block: ≤ 0.5

Query block: Could you do the same for A36C A45C , please?
Result block: 0.763

Query block: Could you do the same for A40C U64C , please?
Result block: 0.912

Query block: Could you do the same for C27U U54G A65C , please?
Result block: ≤ 0.5

Query block: Could you do the same for G6A G9C C11G G25A C34U G68A , please?
Result block: ≤ 0.5

Query block: Could you do the same for C5U C11U A14U , please?
Result block: 0.57

Query block: Could you do the same for A15G C29U , please?
Result block: 0.952

Query block: Could you do the same for C22G C49G G68C , please?
Result block: 0.529

Query block: Could you do the same for A14G C49G A69U A70C , please?
Result block: 0.618

Query block: Could you do the same for A37U C55U C61G A65U , please?
Result block: ≤ 0.5

Query block: Could you do the same for A20C C31A , please?
Result block: 0.79

Query block: Could you do the same for C4G A37U , please?
Result block: 0.681

Query block: Could you do the same for U3C C46G , please?
Result block: 0.912
